Target: IRAK4 (Homo sapiens, UniProt Q9NWZ3)
Construct: endogenous in cells; host or cells: OCI-LY10
Sequence (Q9NWZ3 1-460): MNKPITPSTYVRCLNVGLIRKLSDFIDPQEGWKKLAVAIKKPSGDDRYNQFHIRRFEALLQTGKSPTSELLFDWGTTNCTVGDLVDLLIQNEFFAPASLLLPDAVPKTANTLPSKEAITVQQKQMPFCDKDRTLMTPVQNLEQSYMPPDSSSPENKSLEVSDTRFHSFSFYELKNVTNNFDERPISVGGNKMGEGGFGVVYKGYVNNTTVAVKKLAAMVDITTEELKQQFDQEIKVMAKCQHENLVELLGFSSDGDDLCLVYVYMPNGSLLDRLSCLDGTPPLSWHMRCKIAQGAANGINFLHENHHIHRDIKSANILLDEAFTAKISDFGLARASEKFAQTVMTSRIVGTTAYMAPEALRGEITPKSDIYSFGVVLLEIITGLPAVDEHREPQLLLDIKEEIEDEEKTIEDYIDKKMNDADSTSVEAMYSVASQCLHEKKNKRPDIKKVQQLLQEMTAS
Assay: IRAK4 MSD Degradation in OCI-LY10
Format: cell-based
Conditions: OCI-LY10 cells, 24 hrs incubation, read-out: IRAK4 degradation in OCI-LY10 at 24 hrs: DC50
Measured DC50, listed per entry for reference.

| MOLECULE | SYSTEM_UNDER_TEST | DC50 |
| --- | --- | --- |
| CN(CCCOCCCNc1cccc2c1C(=O)N(C1CCC(=O)NC1=O)C2=O)C[C@H]1CC[C@H](n2cc3cc(NC(=O)c4cccc(C(F)(F)F)n4)c(C(C)(C)O)cc3n2)CC1 (some centres unmarked) [I-31] | IRAK4 (Homo sapiens, UniProt Q9NWZ3) | 50 to 100 nM |

[ask] Please supply the value of reported DC50 for the item COc1cc2nn([C@H]3CC[C@H](CN4CCC5(CC4)CC(CNc4cccc6c4C(=O)N([C@H]4CCC(=O)NC4=O)C6=O)C5)CC3)cc2cc1NC(=O)c1cccc(C(F)(F)F)n1 [I-131]
[reply] 50 to 100 nM

[ask] Please supply the value of reported DC50 for the item COc1cc2nn([C@H]3CC[C@H](CN4CCC(COCCCNc5cccc6c5C(=O)N(C5CCC(=O)NC5=O)C6=O)CC4)CC3)cc2cc1NC(=O)c1cccc(C(C)(C)F)n1 (some centres unmarked) [I-231]
[reply] 50 to 100 nM

[ask] Please supply the value of reported DC50 for the item Cn1c2cc(NC(=O)c3cccc(C(F)(F)F)n3)c(C(C)(C)O)cc2nc1[C@H]1CC[C@H](CN2CC3(CC(CCNc4cccc5c4C(=O)N(C4CCC(=O)NC4=O)C5=O)C3)C2)CC1 (some centres unmarked) [I-287]
[reply] 50 to 100 nM

[ask] Please supply the value of reported DC50 for the item COc1cc2nn([C@H]3CC[C@H](CN(C)[C@H]4CC[C@H](CNc5cccc6c5C(=O)N(C5CCC(=O)NC5=O)C6=O)CC4)CC3)cc2cc1NC(=O)c1cccc(C(F)(F)F)n1 (some centres unmarked) [I-210]
[reply] 50 to 100 nM

---

Target: IRAK4 (Homo sapiens, UniProt Q9NWZ3)
Construct: endogenous in cells; host or cells: OCI-LY10
Assay: IRAK4 MSD Degradation in OCI-LY10
Assay type: cell-based
Conditions: OCI-LY10 cells, 24 hrs incubation, read-out: IRAK4 degradation in OCI-LY10 at 24 hrs: DC50
Measured DC50, listed per entry for reference.

Example cases with answers are listed next.
| COMPOUND | SYSTEM_UNDER_TEST | READOUT_TYPE | VALUE |
| --- | --- | --- | --- |
| CN(CCCO[C@H]1C[C@H](Nc2cccc3c2C(=O)N(C2CCC(=O)NC2=O)C3=O)C1)C[C@]1(C)Cc2cc(NC(=O)c3cccc(C(F)(F)F)n3)c(N3CCOCC3)cc2O1 (some centres unmarked) [I-330] | IRAK4 (Homo sapiens, UniProt Q9NWZ3) | DC50 | 500 to 1000 nM |
| CC(C)(O)c1cc2nn([C@H]3CC[C@H](CN4CCC(O[C@H]5C[C@H](Nc6cccc7c6C(=O)N(C6CCC(=O)NC6=O)C7=O)C5)CC4)CC3)cc2cc1NC(=O)c1cccc(C(F)(F)F)n1 (some centres unmarked) [I-312] | IRAK4 (Homo sapiens, UniProt Q9NWZ3) | DC50 | < 50 nM |

[ask] Please supply the value of reported DC50 for the item CN[C@@H](C)C(=O)N[C@H](C(=O)N1CCC[C@H]1c1nc(C(=O)c2cccc(OCCCC3CC4(CCN(C[C@H]5CC[C@H](n6cc7cc(NC(=O)c8cccc(C(F)(F)F)n8)c(OC)cc7n6)CC5)CC4)C3)c2)cs1)C1CCCCC1 [I-181]
[reply] 500 to 1000 nM

[ask] Please supply the value of reported DC50 for the item COc1cc2nn([C@H]3CC[C@H](CN4CCC5(CCC(Nc6cccc7c6C(=O)N(C6CCC(=O)NC6=O)C7=O)CC5)CC4)CC3)cc2cc1NC(=O)c1cccc(C(C)(C)F)n1 (some centres unmarked) [I-88]
[reply] 50 to 100 nM

[ask] Please supply the value of reported DC50 for the item COc1cc2nn([C@H]3CC[C@H](CN4CCC5(CC4)CC(CCNc4cccc6c4C(=O)N(C4CCC(=O)NC4=O)C6=O)C5)CC3)cc2cc1NC(=O)[C@H]1CCCCO1 (some centres unmarked) [I-142]
[reply] 500 to 1000 nM

[ask] Please supply the value of reported DC50 for the item COc1cc2nn([C@H]3CC[C@H](CN4CCC5(CC4)CC(CNc4cccc6c4C(=O)N(C4CCC(=O)NC4=O)C6=O)C5)CC3)cc2cc1NC(=O)c1cccc(-c2cnn(C)c2)n1 (some centres unmarked) [I-218]
[reply] 50 to 100 nM

[ask] Please supply the value of reported DC50 for the item COc1cc2nn([C@H]3CC[C@H](CN4CCC5(CC4)CC(Nc4cccc6c4C(=O)N(C4CCC(=O)NC4=O)C6=O)C5)CC3)cc2cc1NC(=O)c1cccc(C(C)(C)F)n1 (some centres unmarked) [I-78]
[reply] 50 to 100 nM

---

Molecular target: IRAK4 (Homo sapiens, UniProt Q9NWZ3)
Construct: endogenous in cells; host or cells: OCI-LY10
Experiment: IRAK4 MSD Degradation in OCI-LY10
Type: cell-based
Settings: OCI-LY10 cells, 4 hrs incubation, read-out: IRAK4 degradation in OCI-LY10 at 4 hrs: DC50
Measured DC50, listed per entry for reference.

| MOLECULE | SYSTEM_UNDER_TEST | READOUT_TYPE | VALUE |
| --- | --- | --- | --- |
| CN(CCCO[C@H]1C[C@H](Cc2cccc3c2n(C)c(=O)n3C2CCC(=O)NC2=O)C1)C[C@H]1CC[C@H](n2cc3cc(NC(=O)c4cccc(C(F)(F)F)n4)c(C(F)F)cc3n2)CC1 (some centres unmarked) | IRAK4 (Homo sapiens, UniProt Q9NWZ3) | DC50 | 0.05 to 0.1 µM |
| COc1cc2nn([C@H]3CC[C@H](CN(C)[C@H]4CC[C@]5(CC4)C[C@@H](Cc4cccc6c4n(C)c(=O)n6C4CCC(=O)NC4=O)C5)CC3)cc2cc1NC(=O)c1cccc(C(F)(F)F)n1 (some centres unmarked) | IRAK4 (Homo sapiens, UniProt Q9NWZ3) | DC50 | 0.05 to 0.1 µM |
| Cn1c(=O)n(C2CCC(=O)NC2=O)c2cccc(CCC3CCN(C[C@H]4CC[C@H](n5cc6cc(NC(=O)c7cccc(C(F)(F)F)n7)c(C(C)(C)O)cc6n5)CC4)CC3)c21 (some centres unmarked) | IRAK4 (Homo sapiens, UniProt Q9NWZ3) | DC50 | < 0.05 µM |
| CN(C(=O)[C@H]1CC[C@H](n2cc3cc(NC(=O)c4cccc(C(F)(F)F)n4)c(C(C)(C)O)cc3n2)CC1)C1CCN(Cc2cccc3c2n(C)c(=O)n3C2CCC(=O)NC2=O)CC1 (some centres unmarked) | IRAK4 (Homo sapiens, UniProt Q9NWZ3) | DC50 | < 0.05 µM |
| COc1cc2nn([C@H]3CC[C@H](CN4CCC(c5cccc6c5n(C)c(=O)n6C5CCC(=O)NC5=O)CC4)CC3)cc2cc1NC(=O)c1coc(C)n1 (some centres unmarked) | IRAK4 (Homo sapiens, UniProt Q9NWZ3) | DC50 | < 0.05 µM |
| Cn1c(=O)n(C2CCC(=O)NC2=O)c2cccc(C3CCN(C[C@H]4CC[C@H](n5cc6cc(NC(=O)c7cnccn7)c(C(C)(C)O)cc6n5)CC4)CC3)c21 (some centres unmarked) | IRAK4 (Homo sapiens, UniProt Q9NWZ3) | DC50 | < 0.05 µM |
| Cn1c(=O)n(C2CCC(=O)NC2=O)c2cccc(CCC3CC4(CCN(C[C@H]5CC[C@H](n6cc7cc(NC(=O)c8cnn9cccnc89)c(C(F)F)cc7n6)CC5)CC4)C3)c21 (some centres unmarked) | IRAK4 (Homo sapiens, UniProt Q9NWZ3) | DC50 | < 0.05 µM |

Now examine the next entry.
[ask] Give DC50; test system IRAK4 (Homo sapiens, UniProt Q9NWZ3); molecule COc1cc2nn([C@H]3CC[C@H](CN(C)CC#Cc4cccc5c4n(C)c(=O)n5C4CCC(=O)NC4=O)CC3)cc2cc1NC(=O)c1cccc(C(F)(F)F)n1 (some centres unmarked)
[reply] 0.05 to 0.1 µM
